assay: Solubility in water, HPLC of saturated solutions; settings: 25 °C; g of compound per dm^3
ASSAY METRIC: Solubility in Water at 25 °C (g·dm^−3)
One number for each entry, in g·dm^−3.

Record excerpt, results attached:
MOLECULE	Solubility in Water at 25 °C, g·dm^−3
CCOC(=O)[C@@H](N)Cc1ccccc1.O=C(O)c1ccccc1O [[PheOEt][SA], L-phenylalanine ethyl ester salicylate]	9.732
CC(C)OC(=O)[C@@H](N)C(C)C.O=C(O)c1ccccc1O [[ValOiPr][SA], L-valine isopropyl ester salicylate]	18.458

Pending molecule:
Entry CCCCOC(=O)[C@@H](N)C(C)C.O=C(O)c1ccccc1O [[ValOBu][SA], L-valine butyl ester salicylate] : reported Solubility in Water at 25 °C = ?
14.490

The values you see were collected from paper PMC8746858.
